# reported selectivity ratio; entries follow
assay-remarks: Selectivity index, ratio of CC50 for African green monkey Vero cells to MIC for Staphylococcus aureus ATCC 29213
Format: toxicity, cell-based
test-context: read-out: Selectivity Index

Prompt: Look at this molecule and give its reported selectivity ratio. O=C(CN1C(=O)c2cccc3cccc(c23)C1=O)N1CCN(C(=S)NC2CCCCC2)CC1
Completion: > 400

Prompt: I am curious: what selectivity ratio value has been reported for O=C(CN1C(=O)c2cccc3cccc(c23)C1=O)N1CCC(NC(=S)NC2CCCCC2)CC1 ?
Completion: > 800

Prompt: Quick check: selectivity ratio of O=C1c2cccc3cccc(c23)C(=O)N1CCN1CCN(C(=S)NC2CCCCCC2)CC1 ?
Completion: > 80

Prompt: Requested field: selectivity ratio. Item: O=C(CN1C(=O)c2cccc3cccc(c23)C1=O)N1CCC(NC(=S)NC2CCCC2)CC1
Completion: > 3200

Prompt: Given O=C(CCN1C(=O)c2cccc3cccc(c23)C1=O)N1CCN(C(=S)NC2CCCCC2)CC1 , state its recorded selectivity ratio.
Completion: > 50
